tested on: HepG2; test: Antiproliferative activity against human HepG2 cells assessed as reduction in cell viability incubated for 48 hrs by MTT assay; type: functional, cell-based; settings: HepG2, 48 h
For each entry below, report its IC50 value.
Give bare numbers, in µM.

>>> print(df.to_string())
                          compoundstructure  resultunit  reported
0  O=C1c2c(O)ccc(O)c2C(=O)c2c(NCCNCCO)ccc(NCCNCCO)c21          µM      15.3

As a next step, examine the compound that follows.
Report IC50 for CCCCCCCCCCCCOc1ccc(OCCCCNCCCCNCCCNCCC)c2c1C(=O)c1ccccc1C2=O tested on HepG2.
8.8

----------
molecular target: DNA topoisomerase 2-alpha (Homo sapiens) (UniProt P11388); assay: Inhibition of recombinant human topoisomerase 2 alpha-mediated relaxation of supercoiled pBR322 DNA at 200 uM incubated for 30 mins by ethidium bromide staining based agarose gel electrophoresis method
Sequence (P11388 whole entry): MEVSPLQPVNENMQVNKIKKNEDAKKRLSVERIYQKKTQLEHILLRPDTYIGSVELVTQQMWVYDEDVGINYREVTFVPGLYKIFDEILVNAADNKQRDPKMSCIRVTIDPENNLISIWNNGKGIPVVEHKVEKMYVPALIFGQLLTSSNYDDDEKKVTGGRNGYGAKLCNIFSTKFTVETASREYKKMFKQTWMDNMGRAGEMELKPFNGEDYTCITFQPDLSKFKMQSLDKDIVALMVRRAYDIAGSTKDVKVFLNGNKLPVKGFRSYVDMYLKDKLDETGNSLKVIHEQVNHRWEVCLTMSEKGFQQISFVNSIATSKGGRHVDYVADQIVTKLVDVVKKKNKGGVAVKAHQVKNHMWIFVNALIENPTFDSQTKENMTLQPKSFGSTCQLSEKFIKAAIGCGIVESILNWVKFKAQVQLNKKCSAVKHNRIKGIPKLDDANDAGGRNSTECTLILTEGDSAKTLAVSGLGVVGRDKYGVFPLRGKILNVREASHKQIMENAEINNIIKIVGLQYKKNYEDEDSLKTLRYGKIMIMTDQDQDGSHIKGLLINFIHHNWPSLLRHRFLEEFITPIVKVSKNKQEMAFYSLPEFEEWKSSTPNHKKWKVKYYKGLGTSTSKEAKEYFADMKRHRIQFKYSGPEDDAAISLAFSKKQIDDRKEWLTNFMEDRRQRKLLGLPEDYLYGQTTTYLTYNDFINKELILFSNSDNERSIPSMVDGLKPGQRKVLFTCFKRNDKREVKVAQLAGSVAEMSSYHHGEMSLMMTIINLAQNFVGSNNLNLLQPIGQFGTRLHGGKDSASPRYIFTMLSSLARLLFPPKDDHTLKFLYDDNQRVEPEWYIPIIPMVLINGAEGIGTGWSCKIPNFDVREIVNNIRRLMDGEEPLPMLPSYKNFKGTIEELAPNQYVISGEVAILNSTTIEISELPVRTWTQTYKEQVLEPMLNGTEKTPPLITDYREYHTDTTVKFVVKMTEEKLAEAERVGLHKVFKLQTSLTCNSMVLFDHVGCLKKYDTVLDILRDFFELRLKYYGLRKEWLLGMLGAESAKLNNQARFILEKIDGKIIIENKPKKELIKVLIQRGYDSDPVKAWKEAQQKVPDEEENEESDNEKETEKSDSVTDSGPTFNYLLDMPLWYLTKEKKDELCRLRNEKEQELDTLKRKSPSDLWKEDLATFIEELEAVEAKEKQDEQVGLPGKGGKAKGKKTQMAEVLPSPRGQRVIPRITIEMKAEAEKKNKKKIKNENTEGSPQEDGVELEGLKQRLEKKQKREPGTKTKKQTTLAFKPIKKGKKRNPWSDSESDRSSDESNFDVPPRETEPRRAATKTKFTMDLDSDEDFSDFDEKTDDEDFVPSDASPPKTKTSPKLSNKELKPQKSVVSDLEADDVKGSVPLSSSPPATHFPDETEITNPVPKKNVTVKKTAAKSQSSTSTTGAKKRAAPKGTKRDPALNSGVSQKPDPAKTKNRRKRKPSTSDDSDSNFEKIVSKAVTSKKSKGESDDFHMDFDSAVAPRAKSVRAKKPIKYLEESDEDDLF
The source made the active and inactive calls. No cut-off for these calls is given here.
quantityKind: inhibition

Would you please look over these solved cases?
molecule	quantityKind	reported
O=c1c2cc(O)ccc2[nH]c2c([N+](=O)[O-])ccc(NCc3cccnc3)c12	inhibition	inactive
CN1CCN(Cc2ccc(Nc3ccc([N+](=O)[O-])c4[nH]c5ccc(O)cc5c(=O)c34)cc2)CC1	inhibition	Active
COc1ccc2[nH]c3c([N+](=O)[O-])ccc(NCCCN4CCN(C)CC4)c3c(=O)c2c1	inhibition	Active
COc1cc([C@@H]2c3cc4c(cc3[C@@H](O[C@@H]3O[C@@H]5CO[C@@H](C)O[C@H]5[C@H](O)[C@H]3O)[C@H]3COC(=O)[C@H]23)OCO4)cc(OC)c1O [ETOPOSIDE]	inhibition	Active
CN1CCN(c2ccc(Nc3ccc([N+](=O)[O-])c4[nH]c5ccc(O)cc5c(=O)c34)cc2)CC1	inhibition	Active

Report inhibition for every entry below.
1. COc1ccc2[nH]c3c(N)ccc(Nc4ccc(-n5cncn5)cc4)c3c(=O)c2c1
2. COc1ccc2[nH]c3c([N+](=O)[O-])ccc(Nc4ccc(O)cc4)c3c(=O)c2c1
3. O=c1c2cc(O)ccc2[nH]c2c([N+](=O)[O-])ccc(NCc3cccs3)c12

Active
Active
inactive

The measurements presented in this section are drawn from ChEMBL document CHEMBL4673288.
